metric.name: melting point

Known melting point results, listed for orientation:
molecule | reported
Cc1cnc2c(c1)NC(=O)CO2 | 259 to 261 °C
CCOC(=O)c1[nH]c(C)c(C(=O)O)c1C | 103 to 105 °C
Cc1ccc2[nH]c3c(c2c1)CCCC3=O | 185 to 187 °C
Cc1cc([N+](=O)[O-])cnc1N1CCCCC1C (stereo not drawn) | 48 to 50 °C
Nc1cccc(N2CCCNC2=O)c1 | 229 to 231 °C

Prompt: Fill in the blank: the reported melting point of O=C(O)c1ccc(S(=O)(=O)Nc2ccccc2Oc2ccccc2)cc1 is ____.
Response: 204 to 206 °C

Prompt: Field request: melting point | item: NNC(=O)CCc1ccccc1O
Response: 166 to 168 °C

Prompt: Item CC(Cl)C(=O)NCC(=O)Nc1ccc(F)c(F)c1F (stereo not drawn) has what recorded melting point?
Response: 128 to 130 °C

Prompt: # query: melting point of entry Cc1ccc(S(=O)(=O)N(C)c2ccc(OCC(=O)O)cc2)cc1
Response: 152 to 154 °C

Prompt: Given Cc1ccc(-c2noc3nc(C)cc(C(=O)O)c23)cc1 , state its recorded melting point.
Response: 261 to 263 °C

Prompt: Entry under review: COc1ccc(Cl)c(S(N)(=O)=O)c1 . Reported melting point?
Response: 129 to 131 °C

Prompt: Report melting point for CC(=O)CCc1ccc(OCC(=O)O)cc1 please.
Response: 106 to 108 °C

Prompt: Name the reported melting point value associated with the molecule CCOc1cc(C(=O)O)cc(-c2ccccc2)c1OC
Response: 161 to 163 °C

###

Items are presented alongside their recorded melting point.

Reference set (6 entries):
compound | reported
CCn1c(N)nc2cc(Cl)ccc21 | 169 to 171 °C
CCOC(=O)c1csc(Nc2ccc(OC)cc2)n1 | 117 to 119 °C
CCN(CC)S(=O)(=O)c1cc(C)c(C)c(N)c1 | 147 to 149 °C
Cc1cc(C)nc(-n2nc(N)cc2C)n1 | 134 to 136 °C
Brc1ccc(-n2cnnn2)cc1 | 180 to 182 °C
O=C(O)CCn1cc(Br)ccc1=O | 172 to 174 °C

Prompt: Could you tell me which melting point is on file for O=C(O)c1nnc2c(C(F)(F)F)cccn12 ?
Response: 139 to 141 °C

Prompt: Recorded melting point of CCCc1noc2ncc(C(=O)O)cc12 , please.
Response: 174 to 176 °C

Prompt: # query: melting point of entry Clc1ccncc1Cl
Response: 22 to 23 °C

Prompt: I am curious: what melting point value has been reported for Cc1cc[nH]c(=O)c1C(N)=O ?
Response: 235 to 237 °C

Prompt: # lookup: melting point of Nc1cc(-c2ccc(Br)cc2)ncn1
Response: 251 to 253 °C

Prompt: Could you share which melting point value was measured for O=C(O)C1CCN(S(=O)(=O)c2ccc3ccccc3c2)CC1 ?
Response: 180 to 182 °C

Prompt: Entry CC(C)(C)OC(=O)NCC#Cc1ccc(OCc2ccccc2)cc1 has what melting point?
Response: 104 to 106 °C

###

metric.name: melting point

Worked examples follow.
molecule | reported
COC(=O)c1ccc(-c2noc(CC(C)(C)C)n2)cc1 | 114 to 116 °C
Cc1cc(C(=O)O)n2nc(C)cc2n1 | 189 to 191 °C
CC(=O)Nc1cccc(C(=O)O)n1 | 226 to 228 °C
Cc1nn(-c2cccc(C(F)(F)F)c2)c(C)c1C(=O)C(=O)O | 191 to 193 °C
CCOC(=O)c1c(N)sc(C)c1CC(C)CC (stereo not drawn) | 77 to 79 °C
COc1cccc(NC(=O)CC#N)c1 | 154 to 156 °C

Prompt: # query: melting point of entry CCOC(=O)CCS(=O)(=O)c1ccc(F)cc1
Response: 38 to 40 °C

Prompt: # lookup: melting point of O=C(O)c1ccccc1OCCOc1ccccc1
Response: 84 to 86 °C

Prompt: # input molecule: O/N=C(/Cc1nc2ccccc2[nH]1)c1cccs1 ; wanted: its melting point
Response: 207 to 209 °C

###

# reported melting point; entries follow

Here are 2 compounds together with their reported answers.
compound | melting point
COC(=O)C1CCN(c2ccnc(C#N)c2)CC1 | 104 to 106 °C
CN1CCN(S(=O)(=O)c2ccc(C(=O)NN)cc2)CC1 | 170 to 172 °C

Prompt: Requested read-out: melting point. Entry: Cc1cccc(NC(=O)NCC(=O)O)c1
Response: 182 to 184 °C

Prompt: Entry O=S(=O)(c1cccc(-c2nnc(S)n2-c2ccc(OC(F)(F)F)cc2)c1)N1CCOCC1 has what melting point?
Response: 247 to 249 °C

Prompt: What value of measured melting point is listed for COc1ccc2c(c1)OCC(C(=O)O)C2 (stereo not drawn) ?
Response: 152 to 154 °C

Prompt: Item under review: Nc1ccc2c(c1)N1CCN=C1S2 . Reported melting point?
Response: 201 to 204 °C

Prompt: Given O=C(O)Cc1csc(NC(=O)c2cccs2)n1 , state its recorded melting point.
Response: 194 to 196 °C

Prompt: Any idea what its melting point is? The compound is N=c1nc[nH]c2c1ncn2CCC(N)=O
Response: 255 to 257 °C

Prompt: Sample NC(C(=O)O)c1ccccc1F (stereo not drawn) — what was its melting point?
Response: 229 to 231 °C

Prompt: Give its melting point value. Item: Cc1cc(C)cc(-n2ncc(C=O)n2)c1
Response: 64 to 66 °C

Prompt: If you can, please state the reported melting point value of O=[N+]([O-])c1c(Cl)ccc2scnc12 .
Response: 132 to 134 °C

Prompt: Query (compound): Nc1ccc(N2CCCC2=O)cn1 ; field requested: melting point
Response: 165 to 167 °C

Prompt: Look up melting point: O=C(O)c1cc(-c2ccc(OC(F)F)cc2)nc2ccccc12
Response: 224 to 226 °C

###

Entries and their measured melting point follow.

Worked cases, melting point given:
compound | melting point
Cn1c(=O)[nH]cc(C(=O)O)c1=O | 233 to 235 °C
CCC(N)(C(=O)O)c1ccccc1 (configuration not stated) | 285 to 287 °C
CC(C)C(=O)c1ccc(S(=O)(=O)Cl)cc1 | 64 to 66 °C
CC(Nc1nc2ccccc2s1)C(=O)NN (configuration not stated) | 174 to 176 °C
O=C(NCc1cccnc1)OCC(F)(F)F | 45 to 47 °C

Prompt: Find the recorded melting point belonging to Nc1c(C(=O)N2CCOCC2)oc2ccccc12 and report it.
Response: 123 to 125 °C

Prompt: Look up melting point: Sc1nccn1Cc1ccccc1
Response: 146 to 148 °C

###

Catalogue of compounds with associated melting point

Sample answers from the record:
compound | melting point
COc1cccc(CC(C(=O)O)n2nnnc2C)c1 (centres undefined) | 125 to 127 °C
Oc1ccc(/C=C/c2ccc3ccccc3n2)cc1 | 289 to 291 °C
Cc1cc(=O)oc2ccc(OCC(=O)O)cc12 | 153 to 155 °C
NC(=O)CCNC(=O)c1ccccc1N | 197 to 199 °C
Cn1ccnc1C(N)=S | 134 to 136 °C
CCS(=O)(=O)NCCC(=O)O | 63 to 65 °C

Prompt: Suppose we examine the compound Cc1nc2ccccc2cc1C(=O)O ; what melting point value has been reported?
Response: 243 to 245 °C

###

Known melting point of a selection of molecules

molecule | melting point
Cc1ccc(N)c(N)c1C | 49 to 51 °C
COc1ccc(-c2nnc(S)o2)cc1OC | 251 to 253 °C
Cc1nc(-c2ccc(Cl)cc2)cs1 | 119 to 121 °C
NC(=O)N1CC(O)CC1C(=O)O (centres undefined) | 166 to 168 °C
Fc1ccc(-c2cc[nH]n2)cc1 | 96 to 98 °C
CCOC(=O)/C(C#N)=C/Nc1ccc(I)cc1 | 155 to 157 °C
Nc1cc(Br)ccc1[N+](=O)[O-] | 143 to 145 °C
CC(C)Cc1nc(C#N)c(NN)o1 | 102 to 104 °C

Prompt: Quick one: melting point for COc1cc(C=O)ccc1S ?
Response: 43 to 45 °C

Prompt: State the recorded melting point for this entry: CCOc1ccc(S(=O)(=O)N2CCOCC2)cc1N
Response: 165 to 167 °C

Prompt: May I ask what melting point has been recorded for CC(C)Cc1nc(N)sc1C(=O)O ?
Response: 149 to 151 °C

Prompt: Requested field: melting point. Item: N#Cc1ccccc1-c1ccc(CN)cc1
Response: 53 to 55 °C

Prompt: Given the entry Clc1ccc2nnc(C3CCCO3)n2n1 (centres undefined) , report its measured melting point.
Response: 139 to 141 °C

Prompt: Quick one: melting point of CC(=CC(=O)O)c1ccccc1OC(F)F ?
Response: 69 to 71 °C
